Values compiled from the supplement of paper PMC10567573.

Hi there, I'd appreciate the recorded protein stability index for every entry that follows.
B1: TCEB3B (parent)
chain: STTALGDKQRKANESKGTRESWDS

Variants of: B1
Assay: protein stability index of a GFP-peptide fusion (GPS, HEK-293T) (PSI 1-6); higher = more stable;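 further: lentivirally expressed fusions sorted by FACS into six bins by GFP to DsRed ratio, PSI derived from sequencing read proportions per bin multiplied by bin number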
Settings: c terminus: a fixed tail appended
Give bare numbers.

Worked examples, 3 variants total:
MUT: Q9D
READOUT_VALUE: 3.92

MUT: R19N
READOUT_VALUE: 4.58

MUT: T18K
READOUT_VALUE: 3.61

Go through the items and report each one's protein stability index.
1. A12S
2. D7K
3. A12Q
4. L5T
5. R19Y
6. L5F
7. S24R
8. S24I

[out]
[4.3, 4.05, 3.92, 4.63, 3.37, 3.29, 3.94, 4.26]
